Listed here: items and their measured IC50.
Biological target: Endothelin receptor type B (Homo sapiens)
Sequence (P24530 whole entry): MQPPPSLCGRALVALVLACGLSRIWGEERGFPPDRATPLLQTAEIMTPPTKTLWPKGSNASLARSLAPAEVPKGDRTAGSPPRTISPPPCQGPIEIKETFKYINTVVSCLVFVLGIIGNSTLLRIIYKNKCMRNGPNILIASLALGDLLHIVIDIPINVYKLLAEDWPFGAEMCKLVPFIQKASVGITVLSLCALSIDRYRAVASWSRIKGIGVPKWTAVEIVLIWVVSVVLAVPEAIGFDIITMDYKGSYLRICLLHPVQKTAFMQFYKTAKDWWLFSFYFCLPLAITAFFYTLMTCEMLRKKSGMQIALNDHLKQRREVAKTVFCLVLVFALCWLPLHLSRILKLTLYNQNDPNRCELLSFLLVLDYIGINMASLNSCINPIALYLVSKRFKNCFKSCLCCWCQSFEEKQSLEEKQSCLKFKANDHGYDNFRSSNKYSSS
Assay: Antagonist activity towards human recombinant Endothelin B receptor expressed in chinese hamster ovary (CHO) cells determined using [125I]ET1 as radioligand
quantity: IC50 (nM)

>>> df
                                   compound                              study_target  unit_of_measure  value_comparator  reported_result
0  Cc1cc(C)nc(O[C@H](C(=O)O)[C@@]2(c3ccccc3)NCC(=O)N(Cc3ccc(F)cc3)c3ccccc32)n1 (racemic)  Endothelin receptor type B (Homo sapiens)               nM                 =             49.7
1  COc1cc(OC)cc(O[C@H](C(=O)O)[C@@]2(c3ccccc3)NCC(=O)N(C)c3cc(Cl)ccc32)c1 (racemic)  Endothelin receptor type B (Homo sapiens)               nM                 =             5600
2  COc1cc(OC)nc(O[C@H](C(=O)O)[C@@]2(c3ccccc3)NCC(=O)N(C)c3ccccc32)n1 (racemic)  Endothelin receptor type B (Homo sapiens)               nM                 =              473
3  O=C(O)[C@@H](Oc1ccccc1Cl)[C@@]1(c2ccccc2)NCC(=O)N(Cc2c(Cl)cccc2Cl)c2ccccc21 (racemic)  Endothelin receptor type B (Homo sapiens)               nM                 >            10000
4  COc1cc(OC)cc(O[C@H](C(=O)O)[C@@]2(c3ccccc3)NCC(=O)N(C)c3cc(OC)c(OC)cc32)c1 (racemic)  Endothelin receptor type B (Homo sapiens)               nM                 =             8030
5  Cc1cc(C)nc(O[C@H](C(=O)O)[C@@]2(c3ccccc3)NCc3nnc(C)n3-c3ccccc32)n1 (racemic)  Endothelin receptor type B (Homo sapiens)               nM                 =              250
6  Cc1cc(C)nc(O[C@H](C(=O)O)[C@@]2(c3ccccc3)NCC(=O)N(Cc3ccccc3)c3ccccc32)n1 (racemic)  Endothelin receptor type B (Homo sapiens)               nM                 =             47.4
